B1: Steroid hormone receptor ERR2, residues 100 to 176; numbered along this chain, O95718 (parent)
chain: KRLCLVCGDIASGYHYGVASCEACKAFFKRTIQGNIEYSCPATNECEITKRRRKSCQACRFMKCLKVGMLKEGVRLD

Variants of: B1
TEST_DESCRIPTION: abundance fitness (aPCA) (normalised: wild type 0, dead -1); higher = more abundant; growth selection in yeast, the domain comes from the species named
PARTICULARS: Homo sapiens
# reported abundance fitness; entries follow
ENDPOINT_LABEL: abundance fitness

* S55D | 0.318
* I36D | -0.062
* I48F | -0.298
* G13R | -0.675
* R60E | -0.764
* E47T | -0.112
* C64T | -0.658
* K63Y | -0.982
* A58M | -0.227
* A58T | -0.518
* P41I | -0.071
* C59W | -0.684
* F28T | -0.664
* K1W | -0.387
* I32D | -0.642
* I32G | -0.344
* E37N | -0.575
* C7S | -0.726
* L5K | -0.143
* K1H | -0.525
* E22H | -0.091
* C7D | -0.602

Where do these numbers come from? They come from the Human Domainome abundance scans (Beltran et al. 2025).
